B1: HHH_rd1_0493 (parent)
chain: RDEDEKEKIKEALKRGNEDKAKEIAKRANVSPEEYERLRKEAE

# Variants of: B1
# assay-comment: folding stability dG (cDNA display proteolysis); higher = more stable
# assay-context: PBS, room temperature
List of folding stability dG values.
Give just the numeric value; kJ/mol need not be written.

These recorded examples may help you get a feel for the data.
variant-label	folding stability dG / kJ/mol
K10Y	8.42
E36P	1.09

Prompt: Need folding stability dG of E18K , thanks.
Response: 9.39

Prompt: And for D19P ?
Response: 11
